Tested on: S. typhimurium/E. coli reverse mutation, colony counts
Assay: Bacterial reverse mutation test (aka Ames test) summary data
Results filed as inconclusive are left out. Activity calls are given as the source filed them. How the calls were made is not given here.
The reply should be one of these categories: 1 (active), -1 (inactive)

Tell me the assay call for CBr please.
1

Tell me the assay call for C1COCOC1 please.
1

Tell me the assay call for CCCCCCC(=O)OCC please.
-1

Tell me the assay call for CCN(CC)CC please.
-1

Tell me the assay call for CC(C)[C@@H]1CC[C@@H](C)C[C@H]1O please.
-1

Tell me the assay call for O=C(O)CC(O)(CC(=O)OO)C(=O)O (stereo unspecified) please.
-1

Tell me the assay call for CCOC(=O)CC(C)O (stereo unspecified) please.
-1

Tell me the assay call for CCCCCCCCC1CO1 (stereo unspecified) please.
-1

Tell me the assay call for CC(C)(C)OOC(C)(C)CCC(C)(C)OOC(C)(C)C please.
-1

Tell me the assay call for CCCc1cc(=O)[nH]c(=S)[nH]1 please.
-1

Tell me the assay call for CCCCOC(=O)COc1cc(Cl)c(Cl)cc1Cl please.
-1

Tell me the assay call for c1ccc2c(c1)ccc1cc3c(ccc4ccccc43)cc12 please.
1

Tell me the assay call for Cc1ccc(Cl)cc1N please.
-1

Tell me the assay call for Nc1nc(-c2ccccc2)cs1 please.
1

Tell me the assay call for COc1ccc(C(=O)Nc2ccccc2)cc1[N+](=O)[O-] please.
1

Tell me the assay call for ClC=CC[N+]12CN3CN(CN(C3)C1)C2 please.
1

----------
Tested on: S. typhimurium/E. coli reverse mutation, colony counts
Experiment: Bacterial reverse mutation test (aka Ames test) summary data;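 further: His-minus Salmonella and trp-minus E. coli WP2 uvrA pKM101 with or without liver S9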
Records with an inconclusive call do not appear. Calls of active or inactive are those of the source. No rule for the calls is given here.
Metric name: outcome

Observe how each entry below is paired with its result.
CN(C)C : inactive; negative
NC(=O)c1ccccc1 : inactive; negative
CC(=O)c1c(=O)cc(C)oc1=O : inactive; negative
[O-][n+]1ccccc1SSc1cccc[n+]1[O-] : inactive; negative

If you can, please state the reported outcome value of NC(Cc1ccc(F)cc1)C(=O)O (stereo not drawn) .
inactive; negative

If you can, please state the reported outcome value of COCCOCCOC .
inactive; negative

If you can, please state the reported outcome value of CCN(CC)c1ccc([N+](=O)[O-])cc1 .
active; positive

If you can, please state the reported outcome value of O=C(O)C(F)(F)C(F)(F)C(F)(F)C(F)(F)C(F)(F)C(F)(F)C(F)(F)C(F)(F)C(F)(F)F .
inactive; negative

If you can, please state the reported outcome value of NC(=O)/C(=C\c1ccc([N+](=O)[O-])o1)c1ccco1 .
active; positive

If you can, please state the reported outcome value of CC[N+](=O)[O-] .
inactive; negative

If you can, please state the reported outcome value of c1ccc(Nc2ccc3ccccc3c2)cc1 .
inactive; negative

If you can, please state the reported outcome value of C=CCBr .
active; positive

If you can, please state the reported outcome value of Clc1ccc(Cl)cc1 .
inactive; negative

If you can, please state the reported outcome value of Nc1ccc(N)cc1 .
active; positive

If you can, please state the reported outcome value of CC=O .
inactive; negative

If you can, please state the reported outcome value of CCCCOCCCC .
inactive; negative

If you can, please state the reported outcome value of Nc1ccc([N+](=O)[O-])cc1O .
active; positive

----------
Tested on: S. typhimurium/E. coli reverse mutation, colony counts
Assay: Bacterial reverse mutation test (aka Ames test) summary data;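 further: His-minus Salmonella and trp-minus E. coli WP2 uvrA pKM101 with or without liver S9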
Records with an inconclusive call do not appear. Active and inactive are the calls of the source. How the calls were made is not given here.
The reply should be one of these categories: active, inactive

Tell me the assay call for Cc1ccc2c(c1[N+](=O)[O-])C(=O)c1ccccc1C2=O please.
active

Tell me the assay call for C=CC1CO1 (configuration not stated) please.
active

Tell me the assay call for Cn1c(-c2ccccc2)c(N=Nc2scc[n+]2C)c2ccccc21 please.
active

Tell me the assay call for CN=c1ccc2nc3ccc(N)cc3sc-2c1 please.
active

Tell me the assay call for O=C1OC2(c3cc(Br)c(O)c(Br)c3Oc3c2cc(Br)c(O)c3Br)c2c(Cl)c(Cl)c(Cl)c(Cl)c21 please.
active

Tell me the assay call for CC(C)(OO)c1ccccc1 please.
active

Tell me the assay call for c1ccc2c(c1)CCCC2 please.
inactive

Tell me the assay call for Cc1c(Br)c(Br)c(Br)c(Br)c1Br please.
inactive

Tell me the assay call for CC(C)OC(=O)Cc1ccccc1 please.
inactive

Tell me the assay call for CCC(C)(C)C please.
inactive

Tell me the assay call for c1ccc(P(c2ccccc2)c2ccccc2)cc1 please.
inactive

Tell me the assay call for CCCCCCCCCCCCCC(=O)N[N+](C)(C)CC(C)[O-] (configuration not stated) please.
inactive

----------
Test system: S. typhimurium/E. coli reverse mutation, colony counts
Test: Bacterial reverse mutation test (aka Ames test) summary data;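 further: His-minus Salmonella and trp-minus E. coli WP2 uvrA pKM101 with or without liver S9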
Inconclusive results are not listed. Calls of active or inactive are those of the source. How the calls were made is not given here.
Metric name: outcome

Observe how each entry below is paired with its result.
CN(C)P(=O)(N(C)C)N(C)C : inactive; negative
CC1=C(/C=C/C(C)=C/C=C/C(C)=C/C=C/C=C(C)/C=C/C=C(C)/C=C/C2=C(C)CCCC2(C)C)C(C)(C)CCC1 : active; positive
C1=CCCC=CCC1.C1=CCCC=CCC1.[Ni] : active; positive
CCCCCCCCCCCCCCCCCCN : inactive; negative
CC(CC(=O)O)C(=O)O (configuration not stated) : inactive; negative

If you can, please state the reported outcome value of CC(=O)C=CC1=C(C)CCCC1(C)C .
inactive; negative

If you can, please state the reported outcome value of Nc1cc(Cl)ccc1Cl .
inactive; negative

If you can, please state the reported outcome value of Nc1ccc(N=Nc2ccccc2)cc1 .
active; positive

If you can, please state the reported outcome value of CN(C)CCN(Cc1ccccc1)c1ccccc1 .
inactive; negative

If you can, please state the reported outcome value of ON=C1CCCCC1 .
active; positive

If you can, please state the reported outcome value of CC/C(=C(/CC)c1ccc(O)cc1)c1ccc(O)cc1 .
inactive; negative

If you can, please state the reported outcome value of NCCNCCNCCNCCN .
active; positive

If you can, please state the reported outcome value of N#CSCSC#N .
inactive; negative

If you can, please state the reported outcome value of Nc1cc(Cl)c([N+](=O)[O-])cc1O .
active; positive

----------
Tested on: S. typhimurium/E. coli reverse mutation, colony counts
Assay: Bacterial reverse mutation test (aka Ames test) summary data;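 further: His-minus Salmonella and trp-minus E. coli WP2 uvrA pKM101 with or without liver S9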
Results filed as inconclusive are left out. The source made the active and inactive calls. The rule behind the calls is not given here.
The reply should be one of these categories: 1.0 (active), 0.0 (inactive)

Tell me the assay call for Nc1ccc([N+](=O)[O-])c(N)c1 please.
1.0

Tell me the assay call for Clc1ccc(C(c2ccc(Cl)cc2)C(Cl)(Cl)Cl)cc1 please.
0.0

Tell me the assay call for Clc1ccc(C(c2ccc(Cl)cc2)C(Cl)Cl)cc1 please.
0.0

Tell me the assay call for CNC(=O)NC please.
0.0

Tell me the assay call for CC(C)CNCC(C)C please.
0.0

Tell me the assay call for Cc1ccc(N)cc1N please.
1.0

Tell me the assay call for CCCCCCC(=O)O please.
0.0

Tell me the assay call for CC(C)CCC(C)Nc1ccc(NC(C)CCC(C)C)cc1 (stereo unspecified) please.
0.0

Tell me the assay call for CC1=C(/C=C/C(C)=C/C=C/C(C)=C/C=O)C(C)(C)CCC1 please.
1.0

Tell me the assay call for O=C(O)/C=C\C(=O)O please.
0.0

Tell me the assay call for O=C(O)c1ccc(Cl)c(Cl)c1 please.
0.0

Tell me the assay call for c1ccc(Nc2ccccc2)cc1 please.
0.0

Tell me the assay call for Cc1ccc2c(C)cccc2c1 please.
0.0

Tell me the assay call for Oc1ccc(Cl)c(Cl)c1Cl please.
0.0

Tell me the assay call for Cc1ccc(CO)cc1 please.
0.0

Tell me the assay call for NC(=O)NN=Cc1ccc([N+](=O)[O-])o1 please.
1.0

Tell me the assay call for O=[N+]([O-])c1ccccc1CCO please.
1.0

Tell me the assay call for CCCCC please.
0.0

Tell me the assay call for C[CH2][Hg][S]c1ccccc1C(=O)O please.
0.0

Tell me the assay call for CCC(CO)[N+](=O)[O-] (stereo unspecified) please.
0.0

Tell me the assay call for CCCCC(=O)OCC please.
0.0

Tell me the assay call for CC(Cl)Cl please.
0.0

Tell me the assay call for CCCCOB(OCCCC)OCCCC please.
0.0

Tell me the assay call for CCC[CH2][Sn]([Cl])([Cl])[Cl] please.
0.0

Tell me the assay call for O=C1O[C@H](CO)[C@@H](O)[C@H](O)[C@H]1O please.
0.0

Tell me the assay call for BrCC1CO1 (stereo unspecified) please.
1.0

Tell me the assay call for CC(C)CCC[C@@H](C)[C@H]1CC[C@H]2[C@@H]3CC=C4C[C@@H](OC(=O)Cc5ccc(N(CCCl)CCCl)cc5)CC[C@]4(C)[C@H]3CC[C@]12C please.
0.0

Tell me the assay call for C[C@H]1CCCC(=O)CCC/C=C/c2cc(O)cc(O)c2C(=O)O1 please.
0.0

Tell me the assay call for CCCCC1C(=O)N(c2ccccc2)N(c2ccccc2)C1=O please.
0.0

Tell me the assay call for FC(Cl)(Cl)Cl please.
0.0

Tell me the assay call for Nc1ncn([C@@H]2O[C@H](CO)[C@@H](O)[C@H]2O)c(=O)n1 please.
1.0

Tell me the assay call for O=C1c2c(O)ccc([N+](=O)[O-])c2C(=O)c2c([N+](=O)[O-])ccc(O)c21 please.
1.0

Tell me the assay call for N[C@@H](Cc1c[nH]c2ccccc12)C(=O)O please.
0.0

Tell me the assay call for O=CC=O please.
1.0

Tell me the assay call for COCC1CCC(CO)CC1 (stereo unspecified) please.
0.0

Tell me the assay call for CCCCC(CC)COP(OCC(CC)CCCC)OCC(CC)CCCC (stereo unspecified) please.
0.0

Tell me the assay call for CCCCOP(=O)(OCCCC)Oc1ccccc1 please.
0.0

Tell me the assay call for CNCCS(=O)(=O)O please.
0.0

Tell me the assay call for Cn1cnc2c1c(=O)[nH]c(=O)n2C please.
0.0

Tell me the assay call for O=C1OC2(c3ccc(O)cc3Oc3cc(O)ccc32)c2ccccc21 please.
0.0

Tell me the assay call for CC(O)CN(CC(C)O)CC(C)O (stereo unspecified) please.
0.0

Tell me the assay call for CCNc1nc(Cl)nc(NC(C)C)n1 please.
0.0

Tell me the assay call for ClC(Cl)(Cl)C(Cl)(Cl)Cl please.
0.0

Tell me the assay call for CC(C)(Cl)Cl please.
0.0

Tell me the assay call for [O]=[Zr] please.
0.0

Tell me the assay call for CCCCCC(=O)O please.
0.0

Tell me the assay call for CC(C)Oc1ccc(Nc2ccccc2)cc1 please.
0.0

Tell me the assay call for CC(=O)/C=C/c1ccccc1 please.
1.0

Tell me the assay call for CCCCc1ccc(N=Cc2ccc(OC)cc2)cc1 please.
1.0

Tell me the assay call for Oc1ccc(Cl)cc1Cc1cc(Cl)ccc1O please.
1.0

Tell me the assay call for N#Cc1c(Cl)c(Cl)c(Cl)c(C#N)c1Cl please.
0.0
